Assay: soluble on expression in E. coli; label from the status in PepcDB or PDB records
Reported Property: soluble on expression in E. coli

INSERT INTO measurements (sequence_text, assay_result) VALUES
  ('MQLKRVAEAKLPTPWGDFLMVGFEELATGHDHLALIFGDISGDKPVLSRVHSECLTGDALFSLRCDCGFQLEVALTRIAEEGRGVLIYHRQEGRNIGLLNKIRAYALQDLGADTVEANHQLGFAADERDFTLCSDMYKLLGIKAVRLLTNNPKKVEILTQAGINIVERVPLIVGENPKNEHYLATKAAKMGHLLTK', 'not soluble'),
  ('MLQLLLFLIFCSFTNASSCQDKSPYCNPNDCEVRPGYAMVYCRKTCGNCADFCEDSKFITCSAERKKDCDDMLSDYCPRLCGKCYAKLKPDSKRTKTIPVTQFKRNPAATSTTTTTTRSPSIRMKQPRMLPNGTFINPPLPKYEKLDDTTYTIPEHPTVIDYPIAHMEELMIPEPQRIWPEPEPMRIEPISVYSPYSFVPVQPQVSQPYSPWSPTLGLSSSLDSSRRAPQNYFSSYSQYPQYPDEKLNTIAPNPMQLVEPFLTPGQNDLNPKSMSSLINLLGCKDKDEVICKHVTADTCLSRPGYYLKLCPVTCKNCSGYQCIDSIKIDCAEVKAQGACKLSVASEYCPRTCEYCNPPSDMAKTMSDCKDELETCEQLAESGACQHDFR', 'not soluble'),
  ('MSIKEQTLMTPYLQFDRNQWAALRDSVPMTLSEDEIARLKGINEDLSLEEVAEIYLPLSRLLNFYISSNLRRQAVLEQFLGTNGQRIPYIISIAGSVAVGKSTTARVLQALLSRWPEHRRVELITTDGFLHPNQVLKERGLMKKKGFPESYDMHRLVKFVSDLKSGVPNVTAPVYSHLIYDVIPDGDKTVVQPDILILEGLNVLQSGMDYPHDPHHVFVSDFVDFSIYVDAPEDLLQTWYINRFLKFREGAFTDPDSYFHNYAKLTKEEAIKTAMTLWKEINWLNLKQNILPTRERASLILTKSANHAVEEVRLRK', 'soluble'),
  ('GMEVIESKWYKKDGASSASIDDVEKLLNTTLPKQYKSFLLWSNGGEGKLGDNYIYIWAIEDVIAYNHDYGIQKYLQKEYWAFGMDGDIGYILHLSDNSIYRVDLGDLDITSIKYIAPSFDDFLGKAIYLNFNKLQNVANNNLTT', 'soluble');
